Biological target: NAD-dependent protein deacetylase sirtuin-2 (Homo sapiens, UniProt Q8IXJ6)
Sequence (Q8IXJ6 whole entry): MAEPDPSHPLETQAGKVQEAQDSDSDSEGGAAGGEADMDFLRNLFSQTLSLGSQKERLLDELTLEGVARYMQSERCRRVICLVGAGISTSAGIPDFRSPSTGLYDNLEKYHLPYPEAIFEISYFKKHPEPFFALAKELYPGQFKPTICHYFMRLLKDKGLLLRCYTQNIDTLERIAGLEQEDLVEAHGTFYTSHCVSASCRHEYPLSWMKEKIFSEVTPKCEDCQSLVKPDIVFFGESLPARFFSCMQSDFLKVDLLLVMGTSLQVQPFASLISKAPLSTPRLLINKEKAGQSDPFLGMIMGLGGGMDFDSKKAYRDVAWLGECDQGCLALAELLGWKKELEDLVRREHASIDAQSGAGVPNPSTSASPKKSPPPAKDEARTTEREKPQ
Test: Inhibition of human His6-tagged SIRT2 after 12 mins by Dixon plot analysis in presence of beta-NAD
Measured endpoint: IC50 (µM)

CC(=O)NCCCC[C@H](NC(=O)[C@H](CCCCNC(C)=S)NC(=O)[C@H](Cc1csc2ccccc12)NC(C)=O)C(N)=O : 14.5

(P) CC(=O)NC[C@H](NC(=O)[C@H](CCCCNC(C)=S)NC(=O)[C@H](Cc1ccc2ccccc2c1)NC(C)=O)C(N)=O
(Q) CC(=O)NCCCC[C@H](NC(=O)[C@H](CCCCNC(C)=S)NC(=O)[C@H](Cc1ccc2ccccc2c1)NC(C)=O)C(N)=O
Prompt: For P and Q , which recorded IC50 is lower? Kindly give the label for the entry you pick.
Completion: Q
(Q: 12 µM, P: 17.8 µM)

* * *

Organism: Homo sapiens
Experiment: Selectivity ratio of IC50 for human His6 or GST-tagged SIRT1 to IC50 for human His6-tagged SIRT3
Measured endpoint: Ratio IC50

Completed entries (count: 2):
CC(=O)NC[C@H](NC(=O)[C@H](CCCCNC(C)=S)NC(=O)[C@H](Cc1ccc2ccccc2c1)NC(C)=O)C(N)=O : 9.9
CC(=O)NC[C@H](NC(=O)[C@H](CCCCNC(C)=S)NC(=O)[C@H](Cc1ccc(-c2ccccc2)cc1)NC(C)=O)C(N)=O : 4.1

(A) CC(=O)NC[C@H](NC(=O)[C@H](CCCCNC(C)=S)NC(=O)[C@H](Cc1csc2ccccc12)NC(C)=O)C(N)=O
(B) CC(=O)NC[C@H](NC(=O)[C@H](CCCCNC(C)=S)NC(=O)[C@H](CNC(C)=O)NC(C)=O)C(N)=O
Prompt: For A and B , which recorded Ratio IC50 is lower? Kindly give the label for the entry you pick.
Completion: B
(B: 3.7, A: 5.5)

* * *

Species: Homo sapiens
Experiment: Selectivity ratio of IC50 for human His6-tagged SIRT2 to IC50 for human His6-tagged SIRT3
Measured endpoint: Ratio IC50

CC(=O)NC[C@H](NC(=O)[C@H](CCCCNC(C)=S)NC(=O)[C@H](Cc1ccc(-c2ccccc2)cc1)NC(C)=O)C(N)=O : 5.1
CC(=O)NC[C@H](NC(=O)[C@H](CCCCNC(C)=S)NC(=O)[C@H](CNC(C)=O)NC(C)=O)C(N)=O : 6.6

(I) CC(=O)NC[C@H](NC(=O)[C@H](CCCCNC(C)=S)NC(=O)[C@H](Cc1ccc2ccccc2c1)NC(C)=O)C(N)=O
(II) CC(=O)NC[C@H](NC(=O)[C@H](CCCCNC(C)=S)NC(=O)[C@H](Cc1csc2ccccc12)NC(C)=O)C(N)=O
Prompt: For I and II , which recorded Ratio IC50 is lower? Kindly give the label for the entry you pick.
Completion: II
